Let's look at some compounds and their measured melting point.
Measurement Name: melting point

• CCCCCO[C@@H]1[C@@H](Cc2ccc(Cl)cc2Cl)COC[C@H](NC(=O)c2nccc(OC)c2OC(=O)CCOC)C(=O)O[C@H]1C = 96 to 99 °C
• COc1ccnc(C(=O)N[C@H]2COC[C@H](Cc3ccc(F)cc3)[C@@H](OC(=O)C(C)C)[C@H](C)OC2=O)c1OC(C)=O = 74 to 79 °C
• CCCCCO[C@@H]1[C@@H](Cc2ccc(Cl)cc2Cl)COC[C@H](NC(=O)c2nccc(OC)c2O)C(=O)O[C@H]1C = 50 to 54 °C
• COc1ccnc(C(=O)N[C@H]2COC[C@H](Cc3ccc(C)cc3)[C@@H](OC(=O)C(C)C)[C@H](C)OC2=O)c1OC(C)=O = 88 to 93 °C
• COc1ccnc(C(=O)N[C@H]2COC[C@H](Cc3ccc(Cl)cc3Cl)[C@@H](Oc3ccc(C)cc3)[C@H](C)OC2=O)c1OCOC(C)=O = 70 to 74 °C
• COc1ccnc(C(=O)N[C@H]2COC[C@H](Cc3ccc(F)cc3)[C@@H](OC(=O)C(C)C)[C@H](C)OC2=O)c1O = 66 to 71 °C

---

Let's look at some compounds and their measured melting point.
Measurement Name: melting point

* COc1ccnc(C(=O)N[C@H]2COC[C@H](Cc3ccc(C)cc3)[C@@H](OC(=O)C(C)C)[C@H](C)OC2=O)c1OCOC(C)=O | 43 to 47 °C
* CCCCCO[C@@H]1[C@@H](Cc2ccc(Cl)cc2Cl)COC[C@H](NC(=O)c2nccc(OC)c2OCOC(C)=O)C(=O)O[C@H]1C | 53 to 57 °C
* COc1ccnc(C(=O)N[C@H]2COC[C@H](CCc3ccccc3)[C@@H](OCCCC(F)(F)F)[C@H](C)OC2=O)c1OC(C)=O | 59 to 64 °C
* COc1ccnc(C(=O)N[C@H]2COC[C@H](CC3CCCC3)[C@@H](OC(=O)C(C)C)[C@H](C)OC2=O)c1O | 55 to 59 °C
* COc1ccnc(C(=O)N[C@H]2COC[C@H](Cc3ccc(Cl)cc3Cl)[C@@H](OCC(C)C)[C@H](C)OC2=O)c1OCOC(C)=O | 49 to 53 °C
* CCCCCO[C@@H]1[C@@H](CC2CCCC2)COC[C@H](NC(=O)c2nccc(OC)c2OC(C)=O)C(=O)O[C@H]1C | 46 to 51 °C
* COc1ccnc(C(=O)N[C@H]2COC[C@H](Cc3cccc4ccccc34)[C@@H](OCCCC(F)(F)F)[C@H](C)OC2=O)c1OCOC(C)=O | 61 to 68 °C
* COc1ccnc(C(=O)N[C@H]2COC[C@H](Cc3ccc(F)cc3)[C@@H](OC(=O)C(C)C)[C@H](C)OC2=O)c1OCOC(C)=O | 52 to 56 °C
* COc1ccnc(C(=O)N[C@H]2COC[C@H](Cc3cccc4ccccc34)[C@@H](OC(=O)C(C)C)[C@H](C)OC2=O)c1OC(C)=O | 104 to 108 °C
* COc1ccnc(C(=O)N[C@H]2COC[C@H](Cc3cccc4ccccc34)[C@@H](Oc3ccc(C)cc3)[C@H](C)OC2=O)c1O | 94 to 98 °C
* COc1ccnc(C(=O)N[C@H]2COC[C@H](CC3CCCC3)[C@@H](OC(=O)C(C)C)[C@H](C)OC2=O)c1OC(C)=O | 66 to 69 °C
* COc1ccnc(C(=O)N[C@H]2COC[C@H](Cc3ccc(Cl)cc3Cl)[C@@H](OC(=O)C(C)C)[C@H](C)OC2=O)c1OCOC(=O)C(C)C | 57 to 60 °C
* COc1ccnc(C(=O)N[C@H]2COC[C@H](Cc3ccc(Cl)cc3Cl)[C@@H](OCC(C)C)[C@H](C)OC2=O)c1OC(C)=O | 69 to 73 °C
* CCCCCO[C@@H]1[C@@H](CCc2ccccc2)COC[C@H](NC(=O)c2nccc(OC)c2O)C(=O)O[C@H]1C | 96 to 98 °C
* CCCCCO[C@@H]1[C@@H](Cc2ccc(C)cc2)COC[C@H](N(C(=O)OC(C)(C)C)C(=O)OC(C)(C)C)C(=O)O[C@H]1C | 100 to 103 °C
* COc1ccnc(C(=O)N[C@H]2COC[C@H](CCc3ccccc3)[C@@H](OC3CCCC3)[C@H](C)OC2=O)c1O | 51 to 58 °C
* COc1ccnc(C(=O)N[C@H]2COC[C@H](CC3CCCC3)[C@@H](OCC(C)C)[C@H](C)OC2=O)c1O | 132 to 134 °C
* COc1ccnc(C(=O)N[C@H]2COC[C@H](CCc3ccccc3)[C@@H](OCC(C)C)[C@H](C)OC2=O)c1O | 117 to 120 °C
* COc1ccnc(C(=O)N[C@H]2COC[C@H](Cc3cccc4ccccc34)[C@@H](OCCCC(F)(F)F)[C@H](C)OC2=O)c1O | 118 to 122 °C
* COc1ccnc(C(=O)N[C@H]2COC[C@H](CCc3ccccc3)[C@@H](OCCCC(F)(F)F)[C@H](C)OC2=O)c1O | 78 to 81 °C
* COc1ccnc(C(=O)N[C@H]2COC[C@H](CC3CCCC3)[C@@H](OC(=O)C(C)C)[C@H](C)OC2=O)c1OCOC(C)=O | 41 to 45 °C
* COc1ccnc(C(=O)N[C@H]2COC[C@H](CC3CCCC3)[C@@H](OCC(C)C)[C@H](C)OC2=O)c1OC(C)=O | 56 to 59 °C
* COc1ccnc(C(=O)N[C@H]2COC[C@H](Cc3ccc(F)cc3)[C@@H](OC(=O)C3CC3)[C@H](C)OC2=O)c1OCOC(C)=O | 59 to 64 °C
* CCCCCO[C@@H]1[C@@H](Cc2ccc(C)cc2)COC[C@H](NC(=O)c2nccc(OC)c2O)C(=O)O[C@H]1C | 97 to 99 °C
* COc1ccnc(C(=O)N[C@H]2COC[C@H](Cc3ccc(Cl)cc3Cl)[C@@H](Oc3ccc(C)cc3)[C@H](C)OC2=O)c1O | 81 to 85 °C

---

System: Puccinia triticina
Test: Wheat Brown Rust fungicidal activity (PUCCRT)
Assay type: in vivo
Conditions: Puccinia triticina, 72 h, 3 Day Curative, rate 100 ppm, read-out: Disease control PUCCRT 3DC
Description: Technical grades of materials were dissolved in acetone, which were then mixed with nine volumes of water containing 110 ppm Triton X-100. The fungicide solutions were applied onto wheat seedlings using an automated booth sprayer to run-off. […] All fungicides were evaluated using the aforementioned method for their activity vs. all target diseases. […] Percent disease control was calculated using the ratio of disease severity on treated plants relative to untreated plants. […]
Measurement Name: pest or weed control at 100 ppm

- COc1ccnc(C(=O)N[C@H]2COC[C@H](Cc3ccc(C(F)(F)F)cc3)[C@@H](OC3CCCC3)[C@H](C)OC2=O)c1O [Compound F28]: 0 to 80%
- COc1ccnc(C(=O)N[C@H]2COC[C@H](CCc3ccccc3)[C@@H](OCCCC(F)(F)F)[C@H](C)OC2=O)c1OC(C)=O [Compound F49]: 80 to 100%
- CCCCCO[C@@H]1[C@@H](CC2CCCC2)COC[C@H](NC(=O)c2nccc(OC)c2OC(C)=O)C(=O)O[C@H]1C [Compound F79]: 80 to 100%
- CCCO[C@@H]1[C@@H](CCC(C)C)COC[C@H](NC(=O)c2nccc(OC)c2O)C(=O)O[C@H]1C [Compound F38]: 80 to 100%
- CCCCCO[C@@H]1[C@@H](CCc2ccccc2)COC[C@H](NC(=O)c2nccc(OC)c2O)C(=O)O[C@H]1C [Compound F3]: 80 to 100%
- COc1ccnc(C(=O)N[C@H]2COC[C@H](CCC(C)C)[C@@H](OCC(C)C)[C@H](C)OC2=O)c1OCOC(C)=O [Compound F106]: 80 to 100%
- COc1ccnc(C(=O)N[C@H]2COC[C@H](Cc3ccc(Cl)cc3Cl)[C@@H](OCC(C)C)[C@H](C)OC2=O)c1OCOC(C)=O [Compound F111]: 80 to 100%
- COc1ccnc(C(=O)N[C@H]2COC[C@H](CCc3ccccc3)[C@@H](OCC(C)C)[C@H](C)OC2=O)c1OCOC(C)=O [Compound F82]: 80 to 100%
- COc1ccnc(C(=O)N[C@H]2COC[C@H](Cc3ccc(C)cc3)[C@@H](OCCCC(F)(F)F)[C@H](C)OC2=O)c1OC(C)=O [Compound F62]: 80 to 100%
- CCCCCO[C@@H]1[C@@H](Cc2ccc(Cl)cc2Cl)COC[C@H](NC(=O)c2nccc(OC)c2OC(C)=O)C(=O)O[C@H]1C [Compound F75]: 80 to 100%
- CCCCCO[C@@H]1[C@@H](Cc2ccc(F)cc2)COC[C@H](NC(=O)c2nccc(OC)c2OCOC(C)=O)C(=O)O[C@H]1C [Compound F95]: 80 to 100%
- COc1ccnc(C(=O)N[C@H]2COC[C@H](Cc3ccc(F)cc3)[C@@H](OCC(C)C)[C@H](C)OC2=O)c1OC(C)=O [Compound F60]: 80 to 100%
- COc1ccnc(C(=O)N[C@H]2COC[C@H](Cc3cccc4ccccc34)[C@@H](OC(=O)C(C)C)[C@H](C)OC2=O)c1OC(C)=O [Compound F51]: 0 to 80%
- COc1ccnc(C(=O)N[C@H]2COC[C@H](Cc3ccc(C)cc3)[C@@H](OC3CCCC3)[C@H](C)OC2=O)c1OC(C)=O [Compound F64]: 80 to 100%
- COc1ccnc(C(=O)N[C@H]2COC[C@H](CCc3ccccc3)[C@@H](OC3CCCC3)[C@H](C)OC2=O)c1O [Compound F1]: 80 to 100%
- COc1ccnc(C(=O)N[C@H]2COC[C@H](Cc3ccc(Cl)cc3Cl)[C@@H](OC(=O)C(C)C)[C@H](C)OC2=O)c1OC(C)=O [Compound F73]: 80 to 100%
